Attribution: patent US9951065B2

molecular target: IDO1 (Homo sapiens); construct: HeLa cells were treated with a test compound in the presence of IFNγ, which induces IDO1 expression; host or cells: H1-HeLa cells, IDO1 induced with IFNγ; test: Cell-based (HeLa) assay for measurement of IDO1 inhibition (kynurenine levels in supernatant after IFNγ induction); details: HeLa cells, IFNγ-induced IDO1, kynurenine in supernatant after 48 hour incubation; geometric mean of a minimum of four determinations
Sequence (P14902 whole entry): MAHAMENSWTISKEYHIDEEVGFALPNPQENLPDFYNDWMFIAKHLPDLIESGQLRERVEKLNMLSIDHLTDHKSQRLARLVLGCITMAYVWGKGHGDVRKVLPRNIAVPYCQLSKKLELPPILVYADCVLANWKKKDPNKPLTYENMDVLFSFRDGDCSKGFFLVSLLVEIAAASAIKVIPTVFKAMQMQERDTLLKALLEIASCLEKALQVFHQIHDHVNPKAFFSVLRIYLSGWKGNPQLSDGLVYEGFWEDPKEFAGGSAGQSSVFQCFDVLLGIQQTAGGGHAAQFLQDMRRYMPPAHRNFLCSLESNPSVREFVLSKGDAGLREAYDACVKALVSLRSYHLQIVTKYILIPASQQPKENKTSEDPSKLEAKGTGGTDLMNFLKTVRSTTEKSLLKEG
attributeMeasured: EC50 (nM)

Worked set:
>>> readoutvalue("O/N=C(\\Nc1ccc(Cl)c(Br)c1)c1ccnc2nc[nH]c12")
462
>>> readoutvalue("CC(C)N(C)CCNc1nc2nccc(/C(=N/O)Nc3ccc(F)c(Cl)c3)c2[nH]1")
590
>>> readoutvalue("CC(C)(C)CNCc1nc2nccc(/C(=N/O)Nc3ccc(F)c(Cl)c3)c2[nH]1")
1680
>>> readoutvalue("O/N=C(\\Nc1cccc(Cl)c1)c1ccnc2nc(CCN3CCCCC3)[nH]c12")
602
>>> readoutvalue("O/N=C(\\Nc1ccc(F)c(C#CC2CC2)c1)c1ccnc2nc[nH]c12")
3220

A: O/N=C(\Nc1cccc(Cl)c1)c1cc(F)c(F)c2nc(CNCC3CC3)[nH]c12
B: O/N=C(\Nc1cc(Br)c(F)cc1F)c1ccnc2nc[nH]c12
C: COc1cc(N/C(=N\O)c2ccnc3nc[nH]c23)ccc1F
D: O/N=C(\Nc1ccc2ccoc2c1)c1ccnc2nc[nH]c12
Query: Arrange the 4 compounds by rising EC50, starting with the smallest. Would you mind listing the labels in the order asked for?
Response: B, D, A, C
(B: 371 nM, D: 890 nM, A: 1460 nM, C: 5540 nM)
